- TESTED SYSTEM: OASS-B (Salmonella typhimurium)
- Construct: His6 (N, cleaved yes); made in house; host or cells: E. coli Rosetta (DE3)
- Sequence (P29848 whole entry): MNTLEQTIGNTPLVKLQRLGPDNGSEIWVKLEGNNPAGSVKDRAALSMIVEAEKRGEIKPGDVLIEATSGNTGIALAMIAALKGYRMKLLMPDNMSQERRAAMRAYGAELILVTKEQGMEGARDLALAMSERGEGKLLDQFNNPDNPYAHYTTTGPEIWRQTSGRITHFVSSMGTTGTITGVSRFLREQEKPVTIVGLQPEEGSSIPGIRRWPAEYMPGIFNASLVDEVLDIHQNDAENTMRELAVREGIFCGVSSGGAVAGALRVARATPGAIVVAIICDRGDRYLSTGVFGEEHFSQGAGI
- PROCEDURE SUMMARY: 96-well activity assay (cysteine-ninhydrin), OASS-B
- Type: biochemical

[
  {
    "QUERY SMILES": "O=C(O)c1ccn(-c2ccc(Cl)cc2)n1",
    "READING UNIT": "%",
    "inhibition at 1 µM": 15
  },
  {
    "QUERY SMILES": "O=C(O)c1ccnn1-c1ccccc1",
    "READING UNIT": "%",
    "inhibition at 1 µM": 11
  },
  {
    "QUERY SMILES": "O=C(O)c1ccnn1-c1ccc(Cl)cc1",
    "READING UNIT": "%",
    "inhibition at 1 µM": 9
  },
  {
    "QUERY SMILES": "CC(C)(C)c1ccc(-n2ccc(C(=O)O)n2)cc1",
    "READING UNIT": "%",
    "inhibition at 1 µM": 11
  },
  {
    "QUERY SMILES": "O=C(O)c1ccnn1-c1ccc(F)cc1",
    "READING UNIT": "%",
    "inhibition at 1 µM": 14
  }
]

###

// pKd collected for StOASS-A (Salmonella typhimurium)
pKd: −log10 of the molar value.

[
  {
    "COMPOUND": "O=C(O)c1ccc[nH]1 [Compound 14, 1H-pyrrole-2-carboxylic acid]",
    "TESTED SYSTEM": "StOASS-A (Salmonella typhimurium)",
    "pKd": 4.23
  },
  {
    "COMPOUND": "O=C(O)c1nccs1 [Compound 16, thiazole-2-carboxylic acid]",
    "TESTED SYSTEM": "StOASS-A (Salmonella typhimurium)",
    "pKd": 4.28
  },
  {
    "COMPOUND": "O=C(O)c1ccn[nH]1 [Compound 4c, 1H-pyrazole-5-carboxylic acid]",
    "TESTED SYSTEM": "StOASS-A (Salmonella typhimurium)",
    "pKd": 3.91
  }
]

###

- TESTED SYSTEM: OASS-B (Salmonella typhimurium)
- Construct: His6 (N, cleaved yes); made in house; host or cells: E. coli Rosetta (DE3)
- PROCEDURE SUMMARY: 96-well activity assay (cysteine-ninhydrin), OASS-B
- Type: biochemical
- TEST SETTINGS: read-out: % inhibition OASS-B
Threshold check on inhibition at 1000 µM: at or above 40% gives t, strictly below gives f.

[
  {
    "COMPOUND": "O=C(O)c1ccnn1C1CCCCC1 [Compound 4h]",
    "CATEGORY": "f"
  },
  {
    "COMPOUND": "CC(C)(C)c1ccc(-n2nccc2C(=O)O)cc1 [Compound 4f]",
    "CATEGORY": "t"
  },
  {
    "COMPOUND": "O=C(O)c1ccn(-c2ccc(F)cc2)n1 [Compound 5g]",
    "CATEGORY": "f"
  },
  {
    "COMPOUND": "O=C(O)c1ccnn1-c1ccc(Br)cc1 [Compound 4e]",
    "CATEGORY": "t"
  },
  {
    "COMPOUND": "O=C(O)c1ccn(C2CCCCC2)n1 [Compound 5h]",
    "CATEGORY": "t"
  },
  {
    "COMPOUND": "O=C(O)c1ccn(-c2ccc(Br)cc2)n1 [Compound 5e]",
    "CATEGORY": "f"
  },
  {
    "COMPOUND": "CC(C)(C)c1ccc(-n2ccc(C(=O)O)n2)cc1 [Compound 5f]",
    "CATEGORY": "t"
  }
]
